Please go through the items and note down their pIC50.
- Tested on: MCF7 (breast carcinoma)
- Assay name: Cytotoxicity screening test, MCF7 cells (resazurin, 72 h)
- Assay type: cell-based, human
- Condition info: Homo sapiens, MCF7, 72 h, resazurin, read-out: Cytotoxicity IC50, MCF7
pIC50: −log10 of the molar value.

Prompt line: Returns the measured pIC50 for the input compound. Input: `CC(=O)O[C@H]1CC[C@]2(C)[C@H]3CC=C4[C@@H]5CC(C)(C)CC[C@]5(C(=O)NCCc5c[nH]c6ccc(F)cc56)CC[C@@]4(C)[C@]3(C)CC[C@H]2C1(C)C`
Response line: < 4.30

Prompt line: Returns the measured pIC50 for the input compound. Input: `CC(=O)O[C@H]1CC[C@]2(C)[C@H]3CC=C4[C@@H]5CC(C)(C)CC[C@]5(C(=O)NCCc5c[nH]c6cc(F)ccc56)CC[C@@]4(C)[C@]3(C)CC[C@H]2C1(C)C`
Response line: < 4.30

Prompt line: Returns the measured pIC50 for the input compound. Input: CC1(C)CCC2(C(=O)NCCc3c[nH]c4ccc(F)cc34)CCC3(C)C(=CCC4C5(C)CCC(O)C(C)(C)C5CCC43C)C2C1 (stereo not shown)
Response line: 4.87

Prompt line: Returns the measured pIC50 for the input compound. Input: `CC(=O)O[C@H]1CC[C@]2(C)[C@H]3CC=C4[C@@H]5CC(C)(C)CC[C@]5(C(=O)NCCc5c[nH]c6ccccc56)CC[C@@]4(C)[C@]3(C)CC[C@H]2C1(C)C`
Response line: < 4.30

###

- Test system: MCF7 (breast carcinoma)
- Assay name: Cytotoxicity screening test, MCF7 cells (resazurin, 72 h)
- Type: cell-based, human
- Condition info: Homo sapiens, MCF7, 72 h, resazurin, read-out: Cytotoxicity IC50, MCF7
Measured property: IC50

Prompt line: Returns the measured IC50 for the input molecule. Input: CC1(C)CCC2(C(=O)NCCc3c[nH]c4ccccc34)CCC3(C)C(=CCC4C5(C)CCC(O)C(C)(C)C5CCC43C)C2C1 (stereo not drawn)
Response line: > 50 µM

Prompt line: Returns the measured IC50 for the input molecule. Input: CC1(C)CCC2(C(=O)NCCc3c[nH]c4cc(F)ccc34)CCC3(C)C(=CCC4C5(C)CCC(O)C(C)(C)C5CCC43C)C2C1 (stereo not drawn)
Response line: > 50 µM

Prompt line: Returns the measured IC50 for the input molecule. Input: CC1(C)CC[C@]2(C(=O)O)CC[C@]3(C)C(=CC[C@@H]4[C@@]5(C)CC[C@H](O)C(C)(C)[C@@H]5CC[C@]43C)[C@@H]2C1 [Compound 1, (3β)-3-hydroxyolean-12-en-28-oic acid, reference compound]
Response line: > 50 µM

###

- Assay name: Cytotoxicity screening test, BJ reference fibroblasts (resazurin, 72 h)
- Format: cell-based
- Condition info: human, BJ foreskin fibroblasts (normal reference cells)
Measured property: IC50 at 72 h

Prompt line: Returns the measured IC50 at 72 h for the input compound. Input: CC1(C)CC[C@]2(C(=O)O)CC[C@]3(C)C(=CC[C@@H]4[C@@]5(C)CC[C@H](O)C(C)(C)[C@@H]5CC[C@]43C)[C@@H]2C1 [Compound 1, (3β)-3-hydroxyolean-12-en-28-oic acid, reference compound]
Response line: > 50 µM

Prompt line: Returns the measured IC50 at 72 h for the input compound. Input: CC(=O)O[C@H]1CC[C@]2(C)[C@H]3CC=C4[C@@H]5CC(C)(C)CC[C@]5(C(=O)O)CC[C@@]4(C)[C@]3(C)CC[C@H]2C1(C)C [Compound 2]
Response line: > 50 µM

Prompt line: Returns the measured IC50 at 72 h for the input compound. Input: CC1(C)CCC2(C(=O)NCCc3c[nH]c4ccc(F)cc34)CCC3(C)C(=CCC4C5(C)CCC(O)C(C)(C)C5CCC43C)C2C1 (stereo not drawn) [Compound 4c]
Response line: > 50 µM

###

- System: MCF7 (breast carcinoma)
- Assay name: Cytotoxicity screening test, MCF7 cells (resazurin, 72 h)
- Format: cell-based, human
- Condition info: individual runs, Table S1, read-out: Cytotoxicity IC50, MCF7, single repeated screening runs (italics)
pIC50: −log10 of the molar value.
Measured property: pIC50

Prompt line: Returns the measured pIC50 for the input molecule. Input: CC1(C)CCC2(C(=O)NCCc3c[nH]c4cc(F)ccc34)CCC3(C)C(=CCC4C5(C)CCC(O)C(C)(C)C5CCC43C)C2C1 (stereo not shown)
Response line: < 4.30

###

- Test system: G-361 (malignant melanoma)
- Assay name: Cytotoxicity screening test, G-361 cells (resazurin, 72 h)
- Assay type: cell-based, human
- Condition info: individual runs, Table S1, read-out: Cytotoxicity IC50, G361, single repeated screening runs (italics)
Measured property: pIC50
Here pIC50 is given on a logarithmic scale as minus log10 of the concentration in mol/L.

Prompt line: Returns the measured pIC50 for the input compound. Input: `CC(=O)O[C@H]1CC[C@]2(C)[C@H]3CC=C4[C@@H]5CC(C)(C)CC[C@]5(C(=O)NCCc5c[nH]c6ccccc56)CC[C@@]4(C)[C@]3(C)CC[C@H]2C1(C)C`
Response line: 5.04

###

Measured property: melting point

Prompt line: Returns the measured melting point for the input molecule. Input: `CC(=O)O[C@H]1CC[C@]2(C)[C@H]3CC=C4[C@@H]5CC(C)(C)CC[C@]5(C(=O)NCCc5c[nH]c6cc(F)ccc56)CC[C@@]4(C)[C@]3(C)CC[C@H]2C1(C)C`
Response line: 139 to 140 °C

Prompt line: Returns the measured melting point for the input molecule. Input: CC1(C)CCC2(C(=O)NCCc3c[nH]c4cc(F)ccc34)CCC3(C)C(=CCC4C5(C)CCC(O)C(C)(C)C5CCC43C)C2C1 (stereo not shown)
Response line: 149 to 150 °C

Prompt line: Returns the measured melting point for the input molecule. Input: `CC(=O)O[C@H]1CC[C@]2(C)[C@H]3CC=C4[C@@H]5CC(C)(C)CC[C@]5(C(=O)NCCc5c[nH]c6ccc(F)cc56)CC[C@@]4(C)[C@]3(C)CC[C@H]2C1(C)C`
Response line: 138 to 139 °C

Prompt line: Returns the measured melting point for the input molecule. Input: CC1(C)CCC2(C(=O)NCCc3c[nH]c4ccc(F)cc34)CCC3(C)C(=CCC4C5(C)CCC(O)C(C)(C)C5CCC43C)C2C1 (stereo not shown)
Response line: 147 to 148 °C

FYI, the data here is from paper PMC8540097.
